- Test system: RWP1 cells
- test-description: Effect of anti-FZD5 Fabs on proliferation of pancreatic cancer cell lines (percent growth inhibition)
- Type: cell-based, human
- conditions-used: Fab 10 μg/ml
- Protocol: The effect of presently disclosed anti-FZD5 Fabs on proliferation of RNF43 loss-of-function mutant pancreatic cancer cell lines HPAFII, PATU8988S and ASPC-1; and on pancreatic cancer cell line RWP1, was tested at […] and 10 μg/ml.

{"columns": ["molecule", "scale-unit", "percent growth inhibition, RWP1 10 μg/ml"],
 "data": [
  ["Fab-2901: anti-FZD5 Fab with antibody variable region Fv-2901; CDR SEQ ID NOs: 35, 36, 40, 79, 116, 154 (antibody, V domains shown) VH: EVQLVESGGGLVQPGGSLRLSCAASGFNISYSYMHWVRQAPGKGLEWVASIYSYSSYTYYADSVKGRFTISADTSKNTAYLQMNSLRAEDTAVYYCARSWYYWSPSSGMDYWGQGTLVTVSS VL: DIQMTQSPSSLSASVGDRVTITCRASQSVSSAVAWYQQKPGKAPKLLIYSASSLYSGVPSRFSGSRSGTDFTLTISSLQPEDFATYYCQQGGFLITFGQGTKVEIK", "%", 21.10],
  ["Fab-2916: anti-FZD5 Fab with antibody variable region Fv-2916; CDR SEQ ID NOs: 35, 36, 55, 94, 131, 167 (antibody, V domains shown) VH: EVQLVESGGGLVQPGGSLRLSCAASGFNISYSSIHWVRQAPGKGLEWVASIYPSYSYTYYADSVKGRFTISADTSKNTAYLQMNSLRAEDTAVYYCARYGYYGMDYWGQGTLVTVSS VL: DIQMTQSPSSLSASVGDRVTITCRASQSVSSAVAWYQQKPGKAPKLLIYSASSLYSGVPSRFSGSRSGTDFTLTISSLQPEDFATYYCQQWYHYPYLITFGQGTKVEIK", "%", 30.61]
]}
